From: patent US20230123334A1

Tested on: HEK293 cells
ASSAY_EXPLANATION: Preliminary screening as mRNA vectors, EGFP mRNA transfection of HEK293 cells
Assay type: cell-based
RUN_PARAMETERS: EGFP mRNA 50 ng per well, 96-well plates; percentage of GFP fluorescent cells relative to total number of cells (Hoechst)
READOUT: Absolute mRNA transfection efficiency in HEK293 cells (%)

{"MOLECULE": "CCCCCCCCCCCCCCCCSc1nc(NCCCCCCCCCCCCCCC)nc(NCCCN2CCOCC2)n1 [Compound D8S16N15]", "SYSTEM_UNDER_TEST": "HEK293 cells", "OBSERVED_MEASUREMENT": 0.0}
{"MOLECULE": "CCCCCCCCCCCCNc1nc(NCCN(CC)CC)nc(SCCCCCCCCCCC)n1 [Compound D7S11N12]", "SYSTEM_UNDER_TEST": "HEK293 cells", "OBSERVED_MEASUREMENT": 7.8}
{"MOLECULE": "CCCCCCCCCCCSc1nc(NCCCCCC)nc(NCCN2CCN(C)CC2)n1 [Compound D5S11N6]", "SYSTEM_UNDER_TEST": "HEK293 cells", "OBSERVED_MEASUREMENT": 26.9}
{"MOLECULE": "CCCCCCCCCCCCCCCSc1nc(NCCCN(C)C)nc(N(CCCCCCCCCCCC)CCCCCCCCCCCC)n1 [D6S15^2N12]", "SYSTEM_UNDER_TEST": "HEK293 cells", "OBSERVED_MEASUREMENT": 2.9}
{"MOLECULE": "CCCCCCCCCCCCCCCNc1nc(NCCN(C)C)nc(SCCCCCCCCCCCCCCC)n1 [Compound D1S15N15]", "SYSTEM_UNDER_TEST": "HEK293 cells", "OBSERVED_MEASUREMENT": 0.3}
{"MOLECULE": "CCCCCCCCCCSc1nc(NCCCCCCC)nc(NCCCN(C)C)n1 [Compound D6S10N7]", "SYSTEM_UNDER_TEST": "HEK293 cells", "OBSERVED_MEASUREMENT": 4.4}
{"MOLECULE": "CCCCCCCCCCCCCCCNc1nc(NCCN2CCCC2)nc(SCCCCCCCCC)n1 [Compound D3S9N15]", "SYSTEM_UNDER_TEST": "HEK293 cells", "OBSERVED_MEASUREMENT": 67.9}
{"MOLECULE": "CCCCCCCCCCSc1nc(NCCN2CCCC2)nc(SCCCCCC)n1 [Compound D3S6S10]", "SYSTEM_UNDER_TEST": "HEK293 cells", "OBSERVED_MEASUREMENT": 2.5}

---

Test system: HEK293 cells
ASSAY_EXPLANATION: Preliminary screening as mRNA vectors, EGFP mRNA transfection of HEK293 cells
Format: cell-based
RUN_PARAMETERS: EGFP mRNA 50 ng per well, 96-well plates; percentage of GFP fluorescent cells relative to total number of cells (Hoechst)
Reported Absolute mRNA transfection efficiency in HEK293 cells is given for each of the following compounds.
READOUT: Absolute mRNA transfection efficiency in HEK293 cells

{"COMPOUND": "CCCCCCCCCCCCCCSc1nc(NCCN2CCCCC2)nc(SCCCCCC)n1 [Compound D4S6S14]", "OBSERVED_MEASUREMENT": "5.3%"}
{"COMPOUND": "CCCCCCCCCCCSc1nc(NCCCCCCC)nc(NCCN(C)C)n1 [Compound D1S11N7]", "OBSERVED_MEASUREMENT": "11.7%"}
{"COMPOUND": "CCCCCCCCSc1nc(NCCN2CCN(C)CC2)nc(SCCCCCCCC)n1 [Compound D5S8S8]", "OBSERVED_MEASUREMENT": "45.2%"}
{"COMPOUND": "CCCCCCCCCCCCN(CCCCCCCCCCCC)c1nc(NCCN2CCN(C)CC2)nc(SCCCCCCCCCCC)n1 [D5S11^2N12]", "OBSERVED_MEASUREMENT": "0.6%"}
{"COMPOUND": "CCCCCCCCCCCCCCSc1nc(NCCCCCCCCCCCC)nc(NCCCN2CCN(C)CC2)n1 [Compound D9S14N12]", "OBSERVED_MEASUREMENT": "8.0%"}
{"COMPOUND": "CCCCCCCCCCCCCCSc1nc(NCCCCCCCC)nc(NCC2CCN(C)CC2)n1 [Compound D10S14N8]", "OBSERVED_MEASUREMENT": "43.8%"}
{"COMPOUND": "CCCCCCCCCCCCNc1nc(NCCN(CC)CC)nc(SCCCCCCC)n1 [Compound D7S7N12]", "OBSERVED_MEASUREMENT": "3.6%"}
{"COMPOUND": "CCCCCCCCCCCCCNc1nc(NCCN(C)C)nc(SCCCCCCCCC)n1 [Compound D1S9N13]", "OBSERVED_MEASUREMENT": "25.8%"}

---

System: HEK293 cells
ASSAY_EXPLANATION: Preliminary screening as mRNA vectors, EGFP mRNA transfection of HEK293 cells
Format: cell-based
RUN_PARAMETERS: HEK293 cells, 96-well plates, EGFP mRNA 50 ng per well; percentage of GFP fluorescent cells relative to total number of cells (Hoechst)
Reported Absolute mRNA transfection efficiency in HEK293 cells is given for each of the following molecules.
READOUT: Absolute mRNA transfection efficiency in HEK293 cells (%)

{"MOLECULE": "CCCCCCCCCCCCCNc1nc(NCCCCCCCCC)nc(NCCCN(C)C)n1 [Compound N9N13D6]", "SYSTEM_UNDER_TEST": "HEK293 cells", "READOUT_UNIT": "%", "OBSERVED_MEASUREMENT": 0.4}
{"MOLECULE": "CCCCCCCCCCCCN(CCCCCCCCCCCC)c1nc(NCCCCCCC)nc(NCC2CCN(C)CC2)n1 [N7^2N12D10]", "SYSTEM_UNDER_TEST": "HEK293 cells", "READOUT_UNIT": "%", "OBSERVED_MEASUREMENT": 2.0}
{"MOLECULE": "CCCCCCCCCCCCSc1nc(NCCCN(C)C)nc(SCCCCCCCCC)n1 [Compound S9S12D6]", "SYSTEM_UNDER_TEST": "HEK293 cells", "READOUT_UNIT": "%", "OBSERVED_MEASUREMENT": 61.6}
{"MOLECULE": "CCCCCCCCCCCCCCCNc1nc(NCCCCCCCCCCCC)nc(NCCN2CCCCC2)n1 [Compound N12N15D4]", "SYSTEM_UNDER_TEST": "HEK293 cells", "READOUT_UNIT": "%", "OBSERVED_MEASUREMENT": 1.3}
{"MOLECULE": "CCCCCCNc1nc(NCCCCCC)nc(NCCN2CCCCC2)n1 [Compound N6N6D4]", "SYSTEM_UNDER_TEST": "HEK293 cells", "READOUT_UNIT": "%", "OBSERVED_MEASUREMENT": 0.1}
{"MOLECULE": "CCCCCCCCCNc1nc(NCCCCCCCCC)nc(NCCN2CCOCC2)n1 [Compound N9N9D2]", "SYSTEM_UNDER_TEST": "HEK293 cells", "READOUT_UNIT": "%", "OBSERVED_MEASUREMENT": 0.1}

---

Test system: MCF7 cells
ASSAY_EXPLANATION: Transfection of MCF7 cell line, mRNA vectors
Format: cell-based
RUN_PARAMETERS: 50 ng EGFP mRNA per well
Label true (1) for high-side Absolute mRNA transfection efficiency in MCF7 cells (at or above 20%) and false (0) for low-side Absolute mRNA transfection efficiency in MCF7 cells (below it).

{"MOLECULE_SMILES": "CCCCCCCCCCCCCCCSc1nc(NCCN2CCCC2)nc(SCCCCCCCCC)n1", "CATEGORY": "false (0)"}
{"MOLECULE_SMILES": "CCCCCCCCCNc1nc(NCCCN2CCOCC2)nc(SCCCCCCCCC)n1", "CATEGORY": "false (0)"}
{"MOLECULE_SMILES": "CCCCCCCCCCCCNc1nc(NCCCN2CCN(C)CC2)nc(SCCCCCCCCC)n1", "CATEGORY": "false (0)"}
{"MOLECULE_SMILES": "CCCCCCCCCCCNc1nc(NCCN2CCCC2)nc(SCCCCCCCC)n1", "CATEGORY": "false (0)"}
{"MOLECULE_SMILES": "CCCCCCCCCCCCCCSc1nc(NCCCN(C)C)nc(SCCCCCCCCC)n1", "CATEGORY": "false (0)"}
{"MOLECULE_SMILES": "CCCCCCCCCCCNc1nc(NCCN2CCN(C)CC2)nc(SCCCCCCCCC)n1", "CATEGORY": "false (0)"}
{"MOLECULE_SMILES": "CCCCCCCCCCCCCCCCSc1nc(NCC2CCN(C)CC2)nc(SCCCCCCCCC)n1", "CATEGORY": "true (1)"}
{"MOLECULE_SMILES": "CCCCCCCCCCCCNc1nc(NCC2CCN(C)CC2)nc(SCCCCCCCC)n1", "CATEGORY": "true (1)"}
